Data provenance: patent US20250340595A1

study target: Human TfR1 protein (R&D Systems, 2474-TR or Acro Biosystems, CD1-H5243) (human, UniProt P02786 89-760)
Sequence (P02786 89-760 limits assumed): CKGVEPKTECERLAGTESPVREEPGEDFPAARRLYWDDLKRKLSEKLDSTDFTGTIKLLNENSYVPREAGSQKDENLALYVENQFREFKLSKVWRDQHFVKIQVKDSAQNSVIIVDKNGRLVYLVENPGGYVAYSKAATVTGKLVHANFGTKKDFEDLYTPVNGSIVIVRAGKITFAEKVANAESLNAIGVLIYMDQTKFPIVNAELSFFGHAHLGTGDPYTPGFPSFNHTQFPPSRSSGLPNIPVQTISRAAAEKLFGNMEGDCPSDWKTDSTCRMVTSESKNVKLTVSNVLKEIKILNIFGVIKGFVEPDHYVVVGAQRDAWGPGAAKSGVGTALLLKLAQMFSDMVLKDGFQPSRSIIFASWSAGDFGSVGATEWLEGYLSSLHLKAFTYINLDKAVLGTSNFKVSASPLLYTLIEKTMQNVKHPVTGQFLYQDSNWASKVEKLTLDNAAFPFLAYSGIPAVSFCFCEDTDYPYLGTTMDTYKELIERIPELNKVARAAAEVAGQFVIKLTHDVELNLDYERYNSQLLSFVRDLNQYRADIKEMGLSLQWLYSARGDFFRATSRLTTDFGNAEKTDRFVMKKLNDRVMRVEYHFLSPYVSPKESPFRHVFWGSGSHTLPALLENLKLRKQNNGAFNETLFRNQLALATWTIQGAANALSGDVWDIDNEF
assay info: FP competition, competitor BCY15768
Starred links: 1 amine or outer side, 2 acyl side, 3 side chain; linkers in the order of their positions; H or OH if unused. Positions of bridges follow the written chain, without caps; N, C: chain ends. Non-standard residues stand in square brackets, D forms with d. No end group written: not given here. TATB = O=C(C[*:1])N1CN(C(=O)C[*:2])CN(C(=O)C[*:3])C1; 2Nal = N[C@@H](Cc1ccc2ccccc2c1)C(=O)O; Hyp = O=C(O)[C@@H]1C[C@@H](O)CN1; Tle = CC(C)(C)[C@H](N)C(=O)O; Aib = CC(C)(N)C(=O)O
experimental readout: Ki
Field note: include the unit after the figure.

Example entries and their recorded answers appear below.
ACPXDAHLGCISYCA (3 Cys on TATB; core as printed CP[Aib]DAHLGCISYC) [BCY16550] ... 56 nM
Ac-CP[Hyp]DAYLGCISYC (linker 1-9-13 via TATB) [BCY17990] ... 8 nM
NWNCSPDAHLGCISYCK (3 Cys on TATB; N-terminal acetyl (Ac); C-terminal [K(N3)] 6-azido lysine) [BCY17871] ... 9 nM
HWMCSPDAHLGCISYCA (linker 4-12-16 via TATB) [BCY17110] ... 22 nM
IDSNCPNDAHLGCISYCA (linker 5-13-17 via TATB (inferred)) [BCY17118] ... 70 nM
ACSPDAHLGCIS[2Nal]CA (linker 2-10-14 via TATB) [BCY16031] ... 119 nM

Ki in this record for WGKSCPIDAHLGCISYCA (linker 5-13-17 via TATB (inferred)) [BCY17116] : 75 nM

For this binder ( NWNCSPDAHLGCISYCK (3 Cys on TATB; C-terminal [K(N3)] 6-azido lysine) [BCY17870] ), measured Ki is 9 nM

Value of Ki reported for the binder ACS[Aib]DAHLGC[Tle]SYCA (linker 2-10-14 via TATB) [BCY16753] is 48 nM
